Values from patent US20230340128A1

biological target: human mesothelin (MSLN) (human) (UniProt Q13421); assay: BLI (Octet), bsAb in 1+1 Fab-scFv-Fc format
Listing of entries alongside the reported koff.
Write down the numeric answer in s⁻¹ and omit the unit.

Known koff results, listed for orientation:
XENP32557 (bispecific antibody, part only; not given: anti-CD3 scFv-Fc arm, constant regions, V domains shown, not shown: another chain or arm of the molecule; a dimerising Fc or GST; small tags and cut ends) VH: QVQLVQSGAEVKKPGASVKVSCKASGYTFTSYWMHWVRQAPGQGLEWMGMIHPNSDNTIYYEKFQGRVTMTVDKSISTAYMELSRLRSDDTAVYYCAIIISPVVPKFDYWGQGTLVTVSS VL: DIVMTQSPDSLAVSLGERATINCKASHDVGTSVAWYQQKPGQSPKLLIYWASTRHTGVPDRFTGSGSGTDFTLTISSLQAEDVAVYFCQQYSSYPLTFGAGTKLEIK    0.000374
XENP32569 (bispecific antibody, part only; not given: anti-CD3 scFv-Fc arm, constant regions, V domains shown, not shown: another chain or arm of the molecule; a dimerising Fc or GST; small tags and cut ends) VH: QVQLVQSGAEVKKPGASVKVSCKASGYTFTSYWMHWVRQAPGQGLEWMGMIHPQSDNTIYYEKFQGRVTMTVDKSISTAYMELSRLRSDDTAVYYCAIIITPVVPKFDYWGQGTLVTVSS VL: DIVMTQSPDSLAVSLGERATINCKASHSVGTSVAWYQQKPGQSPKLLIYWASTRHTGVPDRFTGSGSGTDFTLTISSLQAEDVAVYFCQQYSSYPLTFGAGTKLEIK    9.35e-05

## Input Give a short answer stating reported koff for XENP32550 (bispecific antibody, part only; not given: anti-CD3 scFv-Fc arm, constant regions, V domains shown, not shown: another chain or arm of the molecule; a dimerising Fc or GST; small tags and cut ends) VH: QVQLVQSGAEVKKPGASVKVSCKASGYTFTGYWMHWVRQAPGQGLEWMGMIHPNSDNTIYYEKFQGRVTMTVDKSISTAYMELSRLRSDDTAVYYCAIIITPVVPKFDYWGQGTLVTVSS VL: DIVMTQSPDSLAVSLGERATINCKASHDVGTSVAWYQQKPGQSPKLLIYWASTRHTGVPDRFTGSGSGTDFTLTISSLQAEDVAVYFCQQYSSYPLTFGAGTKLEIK .
## Output 0.000314
